Origin of measurements: ChEMBL document CHEMBL1124751

# METHOD_SUMMARY: Solubility was determined
# Type: physicochemical
QUANTITY: solubility

Query string: Requested read-out: solubility. Entry: O=C(CCC(F)(F)C(F)(F)C(F)(F)C(F)(F)C(F)(F)C(F)(F)C(F)(F)C(F)(F)F)OCC(O)C(O)C(O)CO (stereo not given)
Result string: < 10 µg/mL

Query string: Requested read-out: solubility. Entry: OCC(O)C(O)C(O)COC/C=C/C(F)(F)C(F)(F)C(F)(F)C(F)(F)F (stereo not given)
Result string: < 5000 µg/mL

Query string: Requested read-out: solubility. Entry: O=C(CCC(F)(F)C(F)(F)C(F)(F)C(F)(F)C(F)(F)F)OCC(O)C(O)C(O)CO (stereo not given)
Result string: 500 µg/mL

Query string: Requested read-out: solubility. Entry: OCC(O)C(O)C(O)COC/C=C/C(F)(F)C(F)(F)C(F)(F)C(F)(F)C(F)(F)C(F)(F)C(F)(F)C(F)(F)F (stereo not given)
Result string: 50 µg/mL

Query string: Requested read-out: solubility. Entry: OCC(O)C(O)C(O)COC/C=C/C(F)(F)C(F)(F)C(F)(F)C(F)(F)C(F)(F)C(F)(F)F (stereo not given)
Result string: < 1000 µg/mL
